Target: GABA-A receptor; alpha-1/beta-2/gamma-2 (Homo sapiens) (UniProt P14867+P47870+P18507)
Experiment: Modulation of human recombinant GABA-A alpha1beta2gamma2L receptor expressed in Xenopus laevis oocytes assessed as effect on GABA-induced chloride current at 10 uM incubated 60 seconds before addition of GABA measured after 30 seconds at holding potential -70 mV by two-microelectrode voltage clamp technique relative to control
Format: cell-based
Conditions: Oocyte
OBSERVABLE: Activity (%)

> print(dat)
                              line.notation  observable  quantitative.readout
1  CCOC(=O)c1ncn2c1CN=C(c1ccc(C)cc1)c1ccccc1-2    Activity                    -4
2  CCOC(=O)c1ncn2c1CN=C(c1cccc([N+](=O)[O-])c1)c1cc(F)ccc1-2    Activity                   -24
3  CCOC(=O)c1ncn2c1CN=C(c1ccc(Cl)cc1)c1ccccc1-2    Activity                   6.3
4  CCOC(=O)c1ncn2c1CN=C(c1ccc(F)cc1)c1cc(F)ccc1-2    Activity                    12
